- tested-target: hGLP1R (Homo sapiens, UniProt P43220)
- Construct: expressed in transfected cells; host or cells: HEK-293 cells carrying a CRE-luciferase reporter gene
- Sequence (P43220 24-463): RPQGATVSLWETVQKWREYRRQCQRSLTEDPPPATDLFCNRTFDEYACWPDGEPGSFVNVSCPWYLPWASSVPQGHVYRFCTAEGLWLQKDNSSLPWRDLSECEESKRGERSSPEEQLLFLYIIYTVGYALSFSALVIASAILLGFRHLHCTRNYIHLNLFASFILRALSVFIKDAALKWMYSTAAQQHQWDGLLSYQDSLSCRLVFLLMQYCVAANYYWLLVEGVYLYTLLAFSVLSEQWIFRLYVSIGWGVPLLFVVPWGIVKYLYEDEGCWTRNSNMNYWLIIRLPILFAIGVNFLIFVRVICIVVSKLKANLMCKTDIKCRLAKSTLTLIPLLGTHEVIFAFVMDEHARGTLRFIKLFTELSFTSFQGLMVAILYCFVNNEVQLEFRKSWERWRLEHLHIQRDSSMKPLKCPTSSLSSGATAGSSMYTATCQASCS
- measurement-notes: hGLP1R CreLuc reporter gene assay in 0.5% and 100% plasma
- Type: cell-based
- condition-description: CreLuc reporter gene assay, 100% human plasma; read-out: hGLP1R 100% hP
- Protocol: Example 1: hGLPR/hGIPR/hNPY2R CreLuc Assay in 0.5% and 100% Plasma CHO and HEK-293 recombinant cell lines express a luciferase reporter gene under control of the cAMP responsive element (CRE). […] Following incubation, assay plates are equilibrated to room temperature, followed by addition of 25 μl of Bright-GIo™ Luciferase reagent, incubation at room temperature for 10 minutes and analysis of luminescence (Envision Reader). […]
Starred links: 1 amine or outer side, 2 acyl side, 3 side chain; linkers in the order of their positions; H or OH if unused. Non-standard residues stand in square brackets, D forms with d. Groups on a side chain read outwards from the residue. *: point of attachment. C20 diacid = O=C(O)CCCCCCCCCCCCCCCCCCC(=O)*; C18 diacid = O=C(O)CCCCCCCCCCCCCCCCC(=O)*; γGlu = O=C(O)[C@H](CCC(=O)[*:2])N[*:1]; εLys = N[C@@H](CCCCN[*:1])C(=O)[*:2]; hArg = N=C(N)NCCCC[C@H](N)C(=O)O; AEEA = NCCOCCOCC(=O)O; Aib = CC(C)(N)C(=O)O
Below is a list of entries, each paired with its recorded EC50 value.
# number only, unit nM dropped from output

Example substances with recorded EC50:
substance	value-units	EC50
H-Y[Aib]EGTFTSDYSI[Aib]LEKQAQ[Aib]AFVEWLIK([εLys-γGlu-γGlu-γGlu-γGlu-γGlu-γGlu-C20 diacid])GGPSSGAS[Aib]RHYYNWLT[hArg]QR[dY]-NH2 [Compound 26]	nM	1.18
H-Y[Aib]EGTFTSDYSI[Aib]LEKQAQ[Aib]AFVEWLIK([AEEA-AEEA-γGlu-γGlu-γGlu-γGlu-C18 diacid])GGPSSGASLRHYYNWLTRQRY-NH2 [Compound 254]	nM	1.69

Now look at this one.
Item H-Y[Aib]EGTFTSDYSI[Aib]LEEQAQ[Aib]AFVQWLIK([εLys-AEEA-γGlu-γGlu-γGlu-γGlu-γGlu-C20 diacid])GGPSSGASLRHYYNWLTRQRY-NH2 [Compound 45] has what recorded EC50?
1.6
